Recorded values, source patent US8461182B2.

- MEASURED ON: MCH1R (Homo sapiens, UniProt Q99705)
- Construct: IC50; other: cells stably expressing non-endogenous active MCH1R; 50 nM MCH; Fluo-4 calcium, FDSS6000
- TEST METHOD NOTES: Calcium Evaluation Test for MCH1R (FDSS assay, MCH-induced intracellular calcium increase)
- CONDITIONS: cells stably expressing non-endogenous active MCH1R; 50 nM MCH; Fluo-4 calcium, FDSS6000
pIC50: −log10 of the molar value.
PROPERTY: pIC50

[A] N#Cc1cccc(C(=O)NC2CCN(Cc3ccc4c(c3)NC(=O)CC4)CC2)c1
[B] COc1cc(OC)cc(C(=O)NC2CCN(Cc3ccc4c(c3)NC(=O)CC4)CC2)c1
[C] O=C1CCc2ccc(CN3CCC(NC(=O)c4cccc(F)c4)CC3)cc2N1
Put the entries in order of pIC50, starting with the largest number. List the labels, following the order given in the request. B, C, A
(B: 8.41, C: 7.96, A: 7.74)

* * *

- MEASURED ON: MCH1R (Homo sapiens, UniProt Q99705)
- Construct: IC50; other: cells stably expressing non-endogenous active MCH1R; 50 nM MCH; Fluo-4 calcium, FDSS6000
- TEST METHOD NOTES: Calcium Evaluation Test for MCH1R (FDSS assay, MCH-induced intracellular calcium increase)
- Assay type: cell-based
- CONDITIONS: cells stably expressing non-endogenous active MCH1R; 50 nM MCH; Fluo-4 calcium, FDSS6000
Structures can show the parent of a compound that is named as a salt.
PROPERTY: IC50 (nM)

As a guide, the following entries are already answered.
COMPOUND: CC(=O)c1cccc(C(=O)NC2CCN(Cc3ccc4c(c3)NC(=O)CC4)CC2)c1
UNIT: nM
IC50: 10.7
//
COMPOUND: O=C1CCc2ccc(CN3CCC(NC(=O)c4ccc(F)c(F)c4)CC3)cc2N1
UNIT: nM
IC50: 1.5
//
COMPOUND: O=C1CCc2ccc(CN3CCC(NC(=O)c4cc(F)c(F)c(F)c4)CC3)cc2N1
UNIT: nM
IC50: 1.96

[1] COc1cccc(C(=O)NC2CCN(Cc3cc4c(cc3F)CCC(=O)N4)CC2)c1
[2] CC(c1ccc2c(c1)NC(=O)CC2)N1CCC(NC(=O)c2ccc(F)c(Cl)c2)CC1 (stereo not drawn)
[3] O=C1CCc2ccc(CN3CCC(NC(=O)c4cncc(Cl)c4)CC3)cc2N1
[4] O=C1CCc2ccc(CN3CCC(NC(=O)c4cccc(Cl)c4)CC3)cc2N1
Arrange by IC50, high to low. List the labels, following the order given in the request. 1, 3, 4, 2
(1: 39.3 nM, 3: 18.8 nM, 4: 9.08 nM, 2: 1.07 nM)

[P] COc1cccc(C(=O)NC2CCN(Cc3ccc4c(c3)NC(=O)CC4)CC2)c1 [Example 2, monohydrochloride, monohydrate]
[Q] O=C1CCc2ccc(CN3CCC(NC(=O)COc4ccc(F)c(Cl)c4)CC3)cc2N1
Higher IC50 between P and Q ? Give the chosen item's label as your response. P
